Collected IC50 values appear next to each entry.
TESTED TARGET: UniProt:P09382
Sequence (P09382 whole entry): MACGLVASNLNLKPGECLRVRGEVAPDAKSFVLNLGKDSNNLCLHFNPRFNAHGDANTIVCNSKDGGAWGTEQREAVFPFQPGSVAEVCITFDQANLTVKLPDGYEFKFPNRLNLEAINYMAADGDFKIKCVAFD
Quick reminder: number only, in nM, skip the unit.

>  <COMPOUND>
CCC(O)(CC)C(S[C@@H]1O[C@H](CO)[C@H](O)[C@H](n2cc(-c3cc(F)c(F)c(F)c3)nn2)[C@H]1O)C(=O)N(C)CC(C)(C)F (some centres unmarked)

>  <READOUT UNITS>
nM

>  <ASSAY VALUE>
2060

$$$$
>  <COMPOUND>
CN(CC1CC1)C(=O)[C@H](S[C@@H]1O[C@H](CO)[C@H](O)[C@H](n2cc(-c3cc(F)c(F)c(F)c3)nn2)[C@H]1O)C1(O)CCC1 [Example 2.34.218R.]

>  <READOUT UNITS>
nM

>  <ASSAY VALUE>
20900

$$$$
>  <COMPOUND>
CCN(C)C(=O)[C@H](S[C@@H]1O[C@H](CO)[C@H](O)[C@H](n2cc(-c3cc(F)c(F)c(F)c3)nn2)[C@H]1O)C1(O)CCN(C(=O)OC)CC1 [Example 2.50.203R.]

>  <READOUT UNITS>
nM

>  <ASSAY VALUE>
10500

$$$$
>  <COMPOUND>
CCN(CC1CCOCC1)C(=O)C(S[C@@H]1O[C@H](CO)[C@H](O)[C@H](n2cc(-c3cc(F)c(F)c(F)c3)nn2)[C@H]1O)C1(O)CCOCC1 (some centres unmarked)

>  <READOUT UNITS>
nM

>  <ASSAY VALUE>
120

$$$$

Switching to the query record.
Please give the measured IC50 for this compound: CN(CC1CCCC1)C(=O)[C@H](S[C@@H]1O[C@H](CO)[C@H](O)[C@H](n2cc(-c3cc(F)c(F)c(F)c3)nn2)[C@H]1O)C1(O)CCOCC1 200
